Entry source: patent US20250339569A1

target: CAIX-expressing human HT-29 colorectal cancer cells (Homo sapiens); construct: CAIX-expressing human HT-29 colorectal cancer cells; host or cells: HT-29 human colorectal cancer cells; assay: FACS binding assay (IC50 determination, competition with tracer 3BP-2776 or 3BP-4149); conditions: FACS competition on HT-29 cells, Tracer ID 3BP-2776 (10 nM, biotin-labeled), 4° C., 1 hour; read-out: pIC50 category (activity) (converted)
Starred links: 1 amine or outer side, 2 acyl side, 3 side chain; linkers in the order of their positions; H or OH if unused. Positions of bridges follow the written chain, without caps; N, C: chain ends. Non-standard residues stand in square brackets, D forms with d. Residues, ends and D or L forms follow the SMILES beside them. *: point of attachment. X3 = O=C(O)CN1CCN(CC(=O)O)CCN(CC(=O)NCCCOCCOCCOCCCN*)CCN(CC(=O)O)CC1; DOTA = O=C(O)CN1CCN(CC(=O)O)CCN(CC(=O)*)CCN(CC(=O)O)CC1; 1Nal = N[C@@H](Cc1cccc2ccccc12)C(=O)O; mXylylene = c1cc(C[*:1])cc(C[*:2])c1; Pen = CC(C)(S)[C@H](N)C(=O)O; Suc = O=C(CCC(=O)[*:2])[*:1]; 3Amb = NCc1cccc(C(=O)O)c1; Sar = CNCC(=O)O

- Molecule: "CC(=O)N[C@H](C(=O)N[C@@H](Cc1ccc(O)cc1)C(=O)N[C@H]1CSCc2cccc(c2)CSC[C@@H](C(N)=O)NC(=O)[C@H](CCC(N)=O)NC(=O)[C@H](Cc2c[nH]c3ccccc23)NC(=O)[C@H]([C@@H](C)O)NC(=O)[C@H](CC(C)C)NC(=O)[C@H](Cc2cccc3ccccc23)NC(=O)[C@H](CC(=O)O)NC(=O)CN(C)C(=O)[C@H](CCC(=O)O)NC1=O)C(C)C [3BP-3314] (Ac-VYCE[Sar]D[1Nal]LTWQC-NH2; linker 3-12 via mXylylene)"
  IC50: "< 10 nM"
- Molecule: "CC(=O)N[C@H](C(=O)N[C@@H](Cc1ccc(O)cc1)C(=O)N[C@H]1CSCc2cccc(c2)CSC(C)(C)[C@@H](C(N)=O)NC(=O)[C@H](C)NC(=O)[C@H](Cc2c[nH]c3ccccc23)NC(=O)[C@H]([C@@H](C)O)NC(=O)[C@H](CC(C)C)NC(=O)[C@H](Cc2c[nH]c3ccccc23)NC(=O)[C@H](CC(=O)O)NC(=O)[C@H]2CCCN2C(=O)[C@H](CCC(=O)O)NC1=O)C(C)C [3BP-3492] (Ac-VYCE[dP]DWLTWA[Pen]-NH2; linker 3-12 via mXylylene)"
  IC50: "< 10 nM"
- Molecule: "CC(C)C[C@@H]1NC(=O)[C@H](Cc2c[nH]c3ccccc23)NC(=O)[C@H](CC(=O)O)NC(=O)CNC(=O)[C@H](CCC(=O)O)NC(=O)[C@@H](NC(=O)[C@H](Cc2ccc(O)cc2)NC(=O)[C@@H](NC(=O)CCC(=O)NCCCOCCOCCOCCCNC(=O)CN2CCN(CC(=O)O)CCN(CC(=O)O)CCN(CC(=O)O)CC2)C(C)C)CSCc2cccc(c2)CSC[C@@H](C(N)=O)NC(=O)[C@H](CCC(N)=O)NC(=O)[C@H](Cc2c[nH]c3ccccc23)NC(=O)[C@H]([C@@H](C)O)NC1=O [3BP-2959] ({X3-Suc}-VYCEGDWLTWQC-NH2; linker 3-12 via mXylylene)"
  IC50: "< 10 nM"
- Molecule: "CC(=O)N[C@H](C(=O)N[C@@H](Cc1ccc(O)cc1)C(=O)N[C@H]1CSCc2cccc(c2)CSC[C@@H](C(N)=O)NC(=O)[C@H](CCC(N)=O)NC(=O)[C@H](Cc2c[nH]c3ccccc23)NC(=O)[C@H]([C@@H](C)O)NC(=O)[C@@H](CC(C)C)NC(=O)[C@H](Cc2c[nH]c3ccccc23)NC(=O)[C@H](CC(=O)O)NC(=O)CNC(=O)[C@H](CCC(=O)O)NC1=O)C(C)C [3BP-3048] (Ac-VYCEGDW[dL]TWQC-NH2; linker 3-12 via mXylylene)"
  IC50: "100 to 794 nM"
- Molecule: "CC(=O)N[C@H](C(=O)N[C@@H](Cc1ccc(O)cc1)C(=O)N[C@H]1CSCc2cccc(c2)CSC[C@@H](C(N)=O)NC(=O)CNC(=O)[C@H](Cc2c[nH]c3ccccc23)NC(=O)[C@H]([C@@H](C)O)NC(=O)[C@H](CC(C)C)NC(=O)[C@H](Cc2c[nH]c3ccccc23)NC(=O)[C@H](CC(=O)O)NC(=O)CN(C)C(=O)[C@H](CCC(=O)O)NC1=O)C(C)C [3BP-3304] (Ac-VYCE[Sar]DWLTWGC-NH2; linker 3-12 via mXylylene)"
  IC50: "< 10 nM"
- Molecule: "CC(=O)N[C@H]1CSCc2cccc(c2)CSC[C@@H](C(N)=O)NC(=O)[C@H](CCC(N)=O)NC(=O)[C@H](Cc2c[nH]c3ccccc23)NC(=O)[C@H]([C@@H](C)O)NC(=O)[C@H](CC(C)C)NC(=O)[C@H](Cc2c[nH]c3ccccc23)NC(=O)[C@H](CC(=O)O)NC(=O)CN(C)C(=O)[C@H](CCC(=O)O)NC1=O [3BP-3325] (Ac-CE[Sar]DWLTWQC-NH2; linker 1-10 via mXylylene)"
  IC50: "100 to 794 nM"
- Molecule: "CC(=O)N[C@H](C(=O)N[C@@H](Cc1ccc(O)cc1)C(=O)N[C@H]1CSCc2cccc(c2)CSC[C@@H](C(N)=O)NC(=O)[C@H](CO)NC(=O)[C@H](Cc2c[nH]c3ccccc23)NC(=O)[C@@H]2CCC(=O)NCCCC[C@H](NC(=O)[C@H]3CCCN3C(=O)[C@H](CCC(=O)O)NC1=O)C(=O)N[C@@H](Cc1c[nH]c3ccccc13)C(=O)N[C@@H](CC(C)C)C(=O)N2)C(C)C [3BP-3890] (Ac-VYCE[dP]KWLEWSC-NH2; linker 3-12 via mXylylene; lactam 6-9)"
  IC50: "< 10 nM"
- Molecule: "CC(C)C[C@@H]1NC(=O)[C@H](Cc2c[nH]c3ccccc23)NC(=O)[C@H](CC(=O)O)NC(=O)[C@H]2CCCN2C(=O)[C@H](CCC(=O)O)NC(=O)[C@@H](NC(=O)[C@H](Cc2ccc(O)cc2)NC(=O)[C@@H](NC(=O)c2cccc(CNC(=O)CN3CCN(CC(=O)O)CCN(CC(=O)O)CCN(CC(=O)O)CC3)c2)C(C)C)CSCc2cccc(c2)CSC[C@@H](C(N)=O)NC(=O)[C@H](C)NC(=O)[C@H](Cc2c[nH]c3ccccc23)NC(=O)[C@H]([C@@H](C)O)NC1=O [3BP-3429] ({DOTA-3Amb}-VYCE[dP]DWLTWAC-NH2; linker 3-12 via mXylylene)"
  IC50: "< 10 nM"
- Molecule: "CC(C)C[C@@H]1NC(=O)[C@H](Cc2c[nH]c3ccccc23)NC(=O)[C@H](CC(=O)O)NC(=O)CNC(=O)[C@H](CCC(=O)O)NC(=O)[C@@H](NC(=O)[C@H](Cc2ccc(O)cc2)NC(=O)[C@@H](NC(=O)CCC(=O)NCCCOCCOCCOCCCNC(=O)CN2CCN(CC(=O)O)CCN(CC(=O)O)CCN(CC(=O)O)CC2)C(C)C)CSCc2cccc(c2)CSC[C@@H](C(N)=O)NC(=O)[C@H](C)NC(=O)[C@H](Cc2c[nH]c3ccccc23)NC(=O)[C@H]([C@@H](C)O)NC1=O [3BP-3272] ({X3-Suc}-VYCEGDWLTWAC-NH2; linker 3-12 via mXylylene)"
  IC50: "< 10 nM"
